Hello, the source for this data is PubChem BioAssay (NCI), in case you need it.

Could you please report measured growth for the items listed next?
System: HS 578T breast
Assay Info: NCI-60 one-dose screen, 48 h (100 = growth as untreated, 0 = no growth, -100 = all killed)
Test Settings: 10 µM unless noted
About 83,000 compounds went through this panel and 20% of them were active in at least one assay; those are over-represented in the sample as a whole.
Give the value, in units of %, as a plain number.

Note down growth recorded for `CN(C)C(=O)c1cc2cnc(Nc3ccc(-c4csc5c(=O)cc(N6CCNCC6)oc45)cc3)nc2n1C1CCCC1`
11.4

Note down growth recorded for `COc1ccc(/C=C/C(=O)c2ccc(NC(=O)c3cc4cc5ccccc5nc4s3)cc2)cc1OC`
107

Note down growth recorded for `COc1ccc(-c2nn(-c3ccccc3)cc2/C=C2\SC(=O)NC2=O)cc1`
106

Note down growth recorded for `COC(/C=C/c1ccc([N+](=O)[O-])cc1)OC`
122

Note down growth recorded for `Nc1nc(-c2ccc(F)cc2)cc(-c2cnn(-c3ccccc3)n2)n1`
106

Note down growth recorded for COc1cccc2c1C(=O)c1c(O)c3c(c(O)c1C2=O)C[C@@](O)(/C(C)=N/NC(=O)c1ccc(Cl)cc1)C[C@@H]3OC1CC(N)C(O)C(C)O1 (some centres undefined)
-28.4

Note down growth recorded for `COc1cc(OC)c(/C=C/S(=O)(=O)Cc2ccc(OC)c(N)n2)c(OC)c1`
43.8

Note down growth recorded for `c1ccc(CSc2ncnc3nc[nH]c23)nc1`
121

Note down growth recorded for `O=[N+]([O-])c1cccc(-c2nc3sccn3c2-c2ccnc(NCCCNS(=O)(=O)c3ccc(F)cc3)n2)c1`
22.2
